- test_system: T1, biotinylated human transferrin receptor (human, UniProt P02786 89-760, limits assumed, biotinylated (mono-biotinylated in Example 13))
- T1 construct: also called human transferrin receptor-biotinylated; mono-biotinylated human transferrin receptor
- T1 sequence (P02786 89-760 limits assumed): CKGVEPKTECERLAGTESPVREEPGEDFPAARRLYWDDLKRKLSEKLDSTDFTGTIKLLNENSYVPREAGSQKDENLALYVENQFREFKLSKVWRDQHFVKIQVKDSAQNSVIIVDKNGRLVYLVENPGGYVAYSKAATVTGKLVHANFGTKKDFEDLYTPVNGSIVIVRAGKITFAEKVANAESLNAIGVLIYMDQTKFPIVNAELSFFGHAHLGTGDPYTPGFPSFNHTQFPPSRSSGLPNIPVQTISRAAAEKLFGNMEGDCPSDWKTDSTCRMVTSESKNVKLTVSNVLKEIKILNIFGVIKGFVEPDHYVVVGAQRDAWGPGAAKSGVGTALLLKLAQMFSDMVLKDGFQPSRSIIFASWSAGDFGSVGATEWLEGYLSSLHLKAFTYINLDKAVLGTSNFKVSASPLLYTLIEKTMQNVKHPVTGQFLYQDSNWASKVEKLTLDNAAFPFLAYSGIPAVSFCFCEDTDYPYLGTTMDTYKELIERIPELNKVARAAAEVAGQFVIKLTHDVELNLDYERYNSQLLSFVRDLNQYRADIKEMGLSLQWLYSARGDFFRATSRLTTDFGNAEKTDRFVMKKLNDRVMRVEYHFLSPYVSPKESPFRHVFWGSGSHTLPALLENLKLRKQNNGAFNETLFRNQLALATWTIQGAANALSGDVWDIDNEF
- test_method_notes: SPR BIAcore B4000, biotinylated TfR captured, 25 C
- Method: A CAP sensor chip (provided in the Biotin CAPture Kit, series S #28-9202-34 GE) was mounted into a BIAcore B4000 system, normalized and addressed in a hydrodynamic manner, according to the manufacturer's instructions. […] Relevant kinetic data was calculated using the BIAcore B4000 evaluation software. The dissociation from the human transferrin receptor has been determined applying the 1:1 dissociation fit.
Response key: TRUE means koff >= 0.02 s⁻¹; FALSE means koff < 0.02 s⁻¹.

| binder | answer_label |
| --- | --- |
| VH9-DANG / VK9-NYA (antibody, V domains shown) VH: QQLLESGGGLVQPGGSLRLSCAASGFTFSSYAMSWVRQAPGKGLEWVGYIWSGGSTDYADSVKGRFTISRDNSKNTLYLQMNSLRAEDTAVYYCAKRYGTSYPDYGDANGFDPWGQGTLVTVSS VL: AIQLTQSPSSLSASVGDRVTITCRASQSISSYLAWYQQKPGKAPKLLIYRASTLASGVPSRFSGSGSGTDFTLTISSLQPEDFATYYCQQNYASSNVDNTFGGGTKVEIK | FALSE |
| VH23-DANG / VK15-AYS (antibody, V domains shown) VH: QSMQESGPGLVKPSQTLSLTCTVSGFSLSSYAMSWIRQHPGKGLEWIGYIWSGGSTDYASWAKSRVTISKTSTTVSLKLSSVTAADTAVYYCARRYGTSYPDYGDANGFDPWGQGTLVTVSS VL: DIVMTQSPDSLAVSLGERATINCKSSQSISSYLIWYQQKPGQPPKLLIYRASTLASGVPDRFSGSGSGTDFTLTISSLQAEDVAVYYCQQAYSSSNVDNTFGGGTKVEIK | FALSE |
| VH23-DANG / VK12-HYS (antibody, V domains shown) VH: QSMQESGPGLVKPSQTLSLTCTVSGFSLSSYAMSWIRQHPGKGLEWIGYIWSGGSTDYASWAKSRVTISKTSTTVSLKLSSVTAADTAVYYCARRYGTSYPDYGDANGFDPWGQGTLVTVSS VL: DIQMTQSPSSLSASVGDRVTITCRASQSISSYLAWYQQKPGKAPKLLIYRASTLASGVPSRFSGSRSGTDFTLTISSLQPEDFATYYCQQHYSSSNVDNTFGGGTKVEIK | FALSE |
| VH23-DANG / VK17-TYS (antibody, V domains shown) VH: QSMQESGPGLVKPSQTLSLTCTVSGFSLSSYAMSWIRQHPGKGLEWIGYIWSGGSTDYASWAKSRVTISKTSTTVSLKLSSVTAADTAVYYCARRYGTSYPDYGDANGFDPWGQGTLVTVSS VL: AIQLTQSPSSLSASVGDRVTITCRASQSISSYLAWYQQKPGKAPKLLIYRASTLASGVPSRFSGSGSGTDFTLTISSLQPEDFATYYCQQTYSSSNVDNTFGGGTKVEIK | FALSE |

Let's switch to this binder now.
stdin: Given VH9-DANG / VK2-SYS (antibody, V domains shown) VH: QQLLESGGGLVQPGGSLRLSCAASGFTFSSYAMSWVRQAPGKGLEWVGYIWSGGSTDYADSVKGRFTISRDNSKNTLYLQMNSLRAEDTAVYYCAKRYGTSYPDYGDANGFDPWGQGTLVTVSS VL: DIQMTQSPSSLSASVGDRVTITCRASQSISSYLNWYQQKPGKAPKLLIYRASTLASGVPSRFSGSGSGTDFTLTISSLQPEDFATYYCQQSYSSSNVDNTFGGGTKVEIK , state whether its koff is at least 0.02 s⁻¹.
stdout: TRUE
